Taken from ChEMBL document CHEMBL1201862.

- System: SF-268
- TEST: NCI tumour cell line growth inhibition, 48 h
Structures can show the parent of a compound that is named as a salt. Activity calls are given as the source filed them. Rule as the data show it: active = GI50 up to about 1.1 µM and inactive = higher.
Answer with one of the outcomes Yes for active, No for inactive

// query What classification did COc1ccccc1NC(=S)N/N=C1\C(=O)Nc2ccccc21 end up with in this test?
// result Yes

// query What classification did CO/N=C1\CC(NC(=O)CNC(=O)OC(C)(C)C)c2ccsc21 (configuration not stated) end up with in this test?
// result No

// query What classification did O=CN(O)CC(=O)O end up with in this test?
// result No

// query What classification did C[C@]12CC[C@H]3[C@@H](CCC4=CC(=O)CC[C@@]43C)[C@@H]1CC[C@@H]2OC(=O)c1cccc2c(=O)c3ccccc3[nH]c12 end up with in this test?
// result No

// query What classification did C[N+](C)=c1[nH]c2ccccc2[nH]1 end up with in this test?
// result No

// query What classification did Cc1nc(-n2nc(-c3ccccc3)cc2-c2ccccc2)sc1C(=O)/C=C/c1cccc([N+](=O)[O-])c1 end up with in this test?
// result No

// query What classification did CCOC(=O)c1nnsc1NN end up with in this test?
// result No

// query What classification did O=C(NO)c1ccc(O)c(O)c1 end up with in this test?
// result No

// query What classification did CCC(C)C1=C(O)[N+]2([O-])Oc3ccc(-c4c(O)c(O)c(-c5ccc(OC(C)=O)cc5)c(OC(C)=O)c4OC(C)=O)cc3OC2(C(C)CC)C(=O)N1O (configuration not stated) end up with in this test?
// result No

// query What classification did CC(Oc1ccccc1)C(=O)NN (configuration not stated) end up with in this test?
// result No

// query What classification did CC1(C)C2=CCCC(=O)[C@@]2(C)CC[C@@H]1O end up with in this test?
// result No

// query What classification did OC12c3ccccc3C1(N1CCOCC1)CCCCC21OCCCO1 (configuration not stated) end up with in this test?
// result No

// query What classification did COc1ccc(-c2csc(=[N+]3CCCCC3)s2)cc1 end up with in this test?
// result No

// query What classification did O=c1cc(/C=C/c2ccccc2)c2ccc(O/C(=C\c3ccccc3)c3nc4ccccc4c(=O)o3)cc2o1 end up with in this test?
// result No

// query What classification did NN(CC(=O)O)CC(=O)O end up with in this test?
// result No

// query What classification did COc1cccc2c1C(=O)c1ccc3cc(CCl)cc(O)c3c1C2=O end up with in this test?
// result Yes

// query What classification did Cc1ccc(C)c2c1C1CCCCC3(OCCCO3)C21O (configuration not stated) end up with in this test?
// result No

// query What classification did COc1ccc(C2CC(=O)CC(c3ccc(OC)cc3)C23C(=O)NC(=S)NC3=O)cc1 (configuration not stated) end up with in this test?
// result No

// query What classification did O=C(O)/C=C(/CC(=O)O)C(=O)O end up with in this test?
// result No

// query What classification did COc1cc(/C=C2\N=C(c3ccccc3)N(/N=C/c3cc4cc(C)ccc4nc3Cl)C2=O)ccc1O end up with in this test?
// result No

// query What classification did Oc1ccc(C(O)C2CCCCN2)cc1O (configuration not stated) [RIMITEROL HYDROBROMIDE] end up with in this test?
// result No

// query What classification did CC1=NN(c2nc(N)nc(/C(C#N)=C/c3cccn3-c3cc(Cl)cc(Cl)c3)n2)C(C)(C)C1 end up with in this test?
// result No

----------
- Test system: IGROV-1
- TEST: NCI tumour cell line growth inhibition, 48 h
The source made the active and inactive calls. Cut-off read from the data, not from the text of the source: active = GI50 up to about 1.1 µM and inactive = higher.
QUANTITY KIND: GI50

In plain terms, CC(Oc1ccc(Cl)cc1Cl)C(=O)NN1C(=O)CSC1c1ccccc1 (stereo not given) has a documented GI50 of 54 µM (inactive)

In plain terms, O=S(=O)(O)c1c(Cl)cc(O)c2ncccc12 has a documented GI50 of > 100 µM (inactive)

In plain terms, O=C1c2ccccc2C(=O)C2C1C1C(=O)c3ccccc3C(=O)C21 (stereo not given) has a documented GI50 of 79.1 µM (inactive)

In plain terms, CC(=O)C(=N\Nc1ccc(Cl)cc1)/C(C)=N/c1ccc(C)cc1 has a documented GI50 of 32.7 µM (inactive)

In plain terms, N#CCCN(CCC#N)c1ccc(/C=C(\NC(=O)c2cc([N+](=O)[O-])ccc2Cl)C(=O)Nc2ccccc2)cc1 has a documented GI50 of > 100 µM (inactive)

----------
- Test system: MDA-MB-231
- TEST: NCI tumour cell line growth inhibition, 48 h
Calls of active or inactive are those of the source. Rule as the data show it: active = GI50 up to about 1.1 µM and inactive = higher.
Answer with one of the outcomes 1 (active), 0 (inactive)

// query What classification did CC1(C)CC[C@]2(C(=O)O)CC[C@]3(C)C(=CC[C@@H]4[C@@]5(C)C[C@H](O)[C@H](O)[C@@](C)(C(=O)O)[C@@H]5CC[C@]43C)[C@@H]2C1 end up with in this test?
// result 0

// query What classification did C[C@]12CC[C@H]3[C@@H](CCC4=CC(=O)CC[C@@]43C)[C@@H]1CC[C@@H]2OC(=O)c1cccc2c(=O)c3ccccc3[nH]c12 end up with in this test?
// result 0

// query What classification did CO/C(N)=C(C#N)/N=C/c1ccsc1 end up with in this test?
// result 0

// query What classification did COc1ccc(CCNC(=O)Cc2cc(OC)c(OC)cc2CO)cc1OC end up with in this test?
// result 0

// query What classification did CCOc1cc2c(cc1O)CC[C@@H]1[C@@H]2CC[C@]2(C)[C@@H](O)CC[C@@H]12 end up with in this test?
// result 1

// query What classification did CN(C)c1n/c(=N/Cc2ccccn2)ss1 end up with in this test?
// result 0

----------
- Test system: HL-60
- TEST: NCI tumour cell line growth inhibition, 48 h
The source made the active and inactive calls. Rule as the data show it: active = GI50 up to about 1.1 µM and inactive = higher.
Answer with one of the outcomes 1 = active, 0 = inactive

// query What classification did CCOC(=O)/C=C(/C(=O)OCC)n1ccc(=O)n(Cc2cnnn2COCCOC(C)=O)c1=O end up with in this test?
// result 1

// query What classification did CC(C)=CCNc1ncnc2c1c(C#N)cn2C1OC(CO)C(O)C1O (stereo unspecified) end up with in this test?
// result 0

// query What classification did C/C(=C\COP(=O)(O)CP(=O)(O)O)CC/C=C(\C)CNc1ccccc1 end up with in this test?
// result 0

// query What classification did O=C1OCC2=C1C(c1ccc(Cl)cc1)c1cc3c(cc1O2)OCO3 (stereo unspecified) end up with in this test?
// result 0

// query What classification did O=C1COc2cccnc2N1CCCCO end up with in this test?
// result 0

// query What classification did Cc1nc(O)c2ncn(CCO)c2n1 end up with in this test?
// result 0

----------
- Test system: NCI-H460
- TEST: NCI tumour cell line growth inhibition, 48 h
Active and inactive are the calls of the source. Rule as the data show it: active = GI50 up to about 1.1 µM and inactive = higher.
Answer with one of the outcomes yes (active), no (inactive)

// query What classification did CC(=O)NNC(=O)C1CCCCN1 (stereo not drawn) end up with in this test?
// result no

// query What classification did CN(C)CCN(C)CCC(=O)/C=C/c1ccccc1 end up with in this test?
// result no

// query What classification did Clc1ccc2sc(-n3ccc4ccccc43)nc2c1 end up with in this test?
// result no

// query What classification did CCN(CC)CCNc1ccc2ncn3c4ccccc4c(=O)c1c23 end up with in this test?
// result no

// query What classification did CN1Nc2ccccc2CC1=O end up with in this test?
// result no

// query What classification did COc1cc(C(=O)C/C(CCC(=O)Nc2ccccc2[N+](=O)[O-])=N\NC(=O)C(N)=O)ccc1O end up with in this test?
// result no

// query What classification did Cc1cc2c(C)cc(=O)[nH]c2cc1N end up with in this test?
// result no

// query What classification did O=C(/C(=C\I)c1ccccc1)c1ccccc1 end up with in this test?
// result no

// query What classification did CC1(C)C2=CCCC(=O)[C@@]2(C)CC[C@@H]1O end up with in this test?
// result no

// query What classification did CCOc1ccccc1NC(=O)CSc1nnc(Cc2ccccc2)o1 end up with in this test?
// result no

// query What classification did CCc1c(CN)c(CC)c(CNC2=NCCN2)c(CC)c1CNC1=NCCN1 end up with in this test?
// result no

// query What classification did O=c1cc(/C=C/c2ccccc2)c2ccc(O/C(=C\c3ccccc3)c3nc4ccccc4c(=O)o3)cc2o1 end up with in this test?
// result no

// query What classification did O=c1c2c([N+](=O)[O-])cccc2nc2[nH]c3ccccc3n12 end up with in this test?
// result no

// query What classification did CCCCC1NC=Nc2c1ccc1c2[nH]c2ccccc21 (stereo not drawn) end up with in this test?
// result no

// query What classification did CC(=O)OCC1OC(n2cnc3nc(Br)[nH]c(=O)c32)C(OC(C)=O)C1OC(C)=O (stereo not drawn) end up with in this test?
// result no

// query What classification did O=C(O)CCCSc1ccccc1 end up with in this test?
// result no

// query What classification did C/C(=N/NS(=O)(=O)c1ccc(C)cc1)c1cccc[n+]1[O-] end up with in this test?
// result no

// query What classification did c1ccc2c3nnc(c2c1)SCCSCCSc1nnc(c2ccccc12)SCCSCCS3 end up with in this test?
// result no

// query What classification did NN(CC(=O)O)CC(=O)O end up with in this test?
// result no

// query What classification did COC(=O)c1c(C(=O)OC)c2c3ccccc3n(C)c2c2c1c1ccccc1n2C end up with in this test?
// result no

// query What classification did C(=N\CCCN1CCN(CCC/N=C/c2cccc3ccccc23)CC1)/c1cccc2ccccc12 end up with in this test?
// result no

// query What classification did CC1(C)CC[C@]2(C(=O)O)CC[C@]3(C)C(=CC[C@@H]4[C@@]5(C)C[C@H](O)[C@H](O)[C@@](C)(C(=O)O)[C@@H]5CC[C@]43C)[C@@H]2C1 end up with in this test?
// result no

// query What classification did C[N+]1(CCC(=O)c2ccco2)CC2CCC(CC2)C1 (stereo not drawn) end up with in this test?
// result no

// query What classification did CC(=O)OCc1ccc2oc(=O)c(C(=O)Oc3ccccc3)cc2c1 end up with in this test?
// result no

// query What classification did CCOC(=O)C(C(=S)Nc1ccccc1)c1nn2c(=O)cc(C)nc2s1 (stereo not drawn) end up with in this test?
// result no

// query What classification did O=C(CC(=O)c1ccccc1NC1=Cc2ccccc2C(=O)C1=O)C(=O)NC1=C(Cl)C(=O)c2ccccc2C1=O end up with in this test?
// result no

// query What classification did CC1(C)COC(c2cccc(C(=O)c3ccccc3)c2)=N1 end up with in this test?
// result no

// query What classification did COC(=O)[C@]1(C)C(OC)=CC(=O)C2C1[C@H]1CCC[C@@H]21 (stereo partly drawn) end up with in this test?
// result no

// query What classification did Nc1ccc(-c2nc3ccccc3s2)cc1I end up with in this test?
// result no

// query What classification did COC1OCC(O)C(NC(=O)N(C)N=O)C1O (stereo not drawn) end up with in this test?
// result no

// query What classification did Nc1c(F)c(F)c2c(c1F)N(CCCCCl)c1ccccc1S2 end up with in this test?
// result no

// query What classification did COC1CCC2C(NS(=O)(=O)c3ccc(C)cc3)CCCC2O1.Cc1ccc(S(=O)(=O)NC(C)(C)C=O)cc1 (stereo not drawn) end up with in this test?
// result no

// query What classification did COC(=O)C(=O)C(C(=O)C(=O)Nc1ccccc1OC)c1nc2ccc([N+](=O)[O-])cc2nc1O (stereo not drawn) end up with in this test?
// result no

// query What classification did Nc1nc2c(c(=O)[nH]1)C(c1ccc(Cl)cc1)C=C(c1ccccc1)N2 (stereo not drawn) end up with in this test?
// result no

// query What classification did O=C1c2cccc3cc([N+](=O)[O-])cc(c23)C(=O)N1CCCN1CCN(CCCNc2ccc3ncn4c5ccccc5c(=O)c2c34)CC1 end up with in this test?
// result yes

// query What classification did O=C1/C(=C/c2ccc3c(c2)OCCO3)CCC/C1=C\c1ccc2c(c1)OCCO2 end up with in this test?
// result no

// query What classification did CCOC(=O)c1ccc(-n2c(SCC)nc3sc(C)c(C)c3c2=O)cc1 end up with in this test?
// result no

// query What classification did CS(=O)(=O)NNS(=O)(=O)c1ccc(Br)cc1 end up with in this test?
// result no
